Where do the numbers come from? From patent US20210388087A1.

Target: Human CD137 ECD (human)
Sequence (chain, as listed by the source limits assumed): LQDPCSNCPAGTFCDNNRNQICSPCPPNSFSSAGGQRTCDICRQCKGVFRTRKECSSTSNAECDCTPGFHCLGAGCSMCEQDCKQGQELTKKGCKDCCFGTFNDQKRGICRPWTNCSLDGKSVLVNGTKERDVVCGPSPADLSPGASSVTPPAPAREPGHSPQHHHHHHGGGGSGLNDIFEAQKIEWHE
Test: single mutant vs template dBBDu183H
PROPERTY_LABEL: fold change of affinity (fold)
Answers are plain numbers, in fold.

BINDER: H183/L072 VH F29H (antibody, name in Kabat numbering, V domains shown) VH: QVQLVESGGGLVQPGRSLRLSCAASGFTHSNAWMHWVRQAPGKGLEWVAQIKDKGNAYAAYYAPSVKGRFTISRDDSKNSIYLQMNSLKTEDTAVYYCHYVHYASASTVLPAFGVDAWGQGTTVTVSS VL: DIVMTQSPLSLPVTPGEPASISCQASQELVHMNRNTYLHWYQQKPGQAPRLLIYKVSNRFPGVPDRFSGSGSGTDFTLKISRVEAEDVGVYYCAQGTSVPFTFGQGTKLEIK
READING: 0

Here's the next entry for you.
// query Give the reported value of fold change of affinity for this record: H183/L072 VH K52E (antibody, name in Kabat numbering, V domains shown) VH: QVQLVESGGGLVQPGRSLRLSCAASGFTFSNAWMHWVRQAPGKGLEWVAQIEDKGNAYAAYYAPSVKGRFTISRDDSKNSIYLQMNSLKTEDTAVYYCHYVHYASASTVLPAFGVDAWGQGTTVTVSS VL: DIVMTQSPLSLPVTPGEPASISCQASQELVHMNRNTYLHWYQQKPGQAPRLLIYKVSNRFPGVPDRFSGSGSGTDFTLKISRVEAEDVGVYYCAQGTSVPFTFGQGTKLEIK
// result 0
